molecular target: Neuronal acetylcholine receptor; alpha4/beta2 (Rattus norvegicus, UniProt P09483+P12390); test: Displacement of [3H]cytisine from alpha-4-beta-2 in rat cerebral cortical membrane; format: cell membranes; conditions: read-out: Ki
Sequence (P09483 whole entry): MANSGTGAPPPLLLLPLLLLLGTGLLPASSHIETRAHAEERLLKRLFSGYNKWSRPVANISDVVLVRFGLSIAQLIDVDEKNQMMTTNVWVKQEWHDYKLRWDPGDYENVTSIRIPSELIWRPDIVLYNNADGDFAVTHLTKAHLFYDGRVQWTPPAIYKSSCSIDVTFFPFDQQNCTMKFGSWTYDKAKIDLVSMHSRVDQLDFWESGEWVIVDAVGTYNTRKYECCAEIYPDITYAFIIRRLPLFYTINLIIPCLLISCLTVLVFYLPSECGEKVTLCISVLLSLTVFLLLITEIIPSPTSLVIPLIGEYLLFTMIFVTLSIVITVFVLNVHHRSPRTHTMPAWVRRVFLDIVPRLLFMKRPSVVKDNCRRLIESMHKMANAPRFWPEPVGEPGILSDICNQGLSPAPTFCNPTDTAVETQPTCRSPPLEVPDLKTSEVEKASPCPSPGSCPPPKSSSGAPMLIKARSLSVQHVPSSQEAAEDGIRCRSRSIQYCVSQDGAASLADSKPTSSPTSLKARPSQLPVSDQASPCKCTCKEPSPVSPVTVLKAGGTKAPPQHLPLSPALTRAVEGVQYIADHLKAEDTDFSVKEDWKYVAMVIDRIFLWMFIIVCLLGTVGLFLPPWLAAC
Sequence (P12390 whole entry): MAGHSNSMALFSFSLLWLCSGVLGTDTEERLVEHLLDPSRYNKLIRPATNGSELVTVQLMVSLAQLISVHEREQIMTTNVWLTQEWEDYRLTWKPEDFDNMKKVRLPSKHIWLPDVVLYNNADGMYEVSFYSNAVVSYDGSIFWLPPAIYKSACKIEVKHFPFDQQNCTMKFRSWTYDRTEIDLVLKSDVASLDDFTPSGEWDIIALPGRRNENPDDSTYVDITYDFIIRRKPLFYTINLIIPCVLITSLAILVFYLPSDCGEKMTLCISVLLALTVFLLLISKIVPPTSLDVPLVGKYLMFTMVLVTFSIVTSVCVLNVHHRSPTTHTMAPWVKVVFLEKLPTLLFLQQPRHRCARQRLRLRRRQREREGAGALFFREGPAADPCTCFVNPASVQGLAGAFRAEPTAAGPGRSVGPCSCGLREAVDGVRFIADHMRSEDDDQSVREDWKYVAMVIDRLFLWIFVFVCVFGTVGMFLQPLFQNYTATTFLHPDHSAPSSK
pKi: −log10 of the molar value.
# binarize pKi: threshold 9 inclusive, high side MET, low side NOT MET

Take a look at these entries with their results.
## Input pKi >= 9 for c1csc(N2C[C@@H]3C[C@H]2CN3)n1 ?
## Output NOT MET

## Input pKi >= 9 for c1ccc2nc(N3C[C@@H]4C[C@H]3CN4)ccc2c1 ?
## Output NOT MET

---
## Input pKi >= 9 for c1ccc2ncc(N3C[C@@H]4C[C@H]3CN4)cc2c1 ?
## Output NOT MET

## Input pKi >= 9 for Clc1cc(N2CC3CC2CN3)ncn1 (configuration not stated) ?
## Output NOT MET

## Input pKi >= 9 for Clc1ccc(N2CC3CC2CCN3)cn1 (configuration not stated) ?
## Output NOT MET

## Input pKi >= 9 for Fc1cccc(N2C[C@@H]3C[C@H]2CN3)c1 ?
## Output NOT MET

## Input pKi >= 9 for c1cnnc(N2C[C@@H]3C[C@H]2CN3)c1 ?
## Output NOT MET

## Input pKi >= 9 for COc1ccc(N2C[C@H]3C[C@@H]2CN3)cn1 ?
## Output MET

## Input pKi >= 9 for Clc1ccc(N2C[C@@H]3C[C@H]2CN3)cn1 ?
## Output MET

## Input pKi >= 9 for O=C(c1ccc(Cl)nc1)N1C[C@H]2C[C@@H]1CN2 ?
## Output NOT MET

## Input pKi >= 9 for O=C1C2CC(CN2)N1c1ccc(Cl)nc1 (configuration not stated) ?
## Output NOT MET

## Input pKi >= 9 for C[N+]1(C)CC2CC1CN2c1ccc(Cl)nc1 (configuration not stated) ?
## Output MET

## Input pKi >= 9 for c1cncc(N2CC3CNC(C3)C2)c1 (configuration not stated) ?
## Output MET

====

biological target: Neuronal acetylcholine receptor; alpha4/beta2 (Homo sapiens, UniProt P17787+P43681); test: Agonist activity at […] in IMR-32cells assessed as calcium influx by FLIPR assay; type: functional; settings: read-out: EC50
Sequence (P17787 whole entry): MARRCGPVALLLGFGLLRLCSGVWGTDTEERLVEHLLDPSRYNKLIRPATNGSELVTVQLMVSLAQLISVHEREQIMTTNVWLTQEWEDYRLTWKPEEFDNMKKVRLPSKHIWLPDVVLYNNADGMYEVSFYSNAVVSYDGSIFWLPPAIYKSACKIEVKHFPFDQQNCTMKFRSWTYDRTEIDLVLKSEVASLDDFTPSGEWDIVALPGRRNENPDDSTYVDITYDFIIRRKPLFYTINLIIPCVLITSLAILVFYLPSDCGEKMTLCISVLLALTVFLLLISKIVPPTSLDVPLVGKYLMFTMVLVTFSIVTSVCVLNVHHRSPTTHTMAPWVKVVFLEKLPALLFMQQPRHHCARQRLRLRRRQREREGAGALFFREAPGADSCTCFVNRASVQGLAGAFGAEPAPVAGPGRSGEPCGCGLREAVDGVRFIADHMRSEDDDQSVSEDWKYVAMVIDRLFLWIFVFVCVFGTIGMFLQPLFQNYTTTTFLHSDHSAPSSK
Sequence (P43681 whole entry): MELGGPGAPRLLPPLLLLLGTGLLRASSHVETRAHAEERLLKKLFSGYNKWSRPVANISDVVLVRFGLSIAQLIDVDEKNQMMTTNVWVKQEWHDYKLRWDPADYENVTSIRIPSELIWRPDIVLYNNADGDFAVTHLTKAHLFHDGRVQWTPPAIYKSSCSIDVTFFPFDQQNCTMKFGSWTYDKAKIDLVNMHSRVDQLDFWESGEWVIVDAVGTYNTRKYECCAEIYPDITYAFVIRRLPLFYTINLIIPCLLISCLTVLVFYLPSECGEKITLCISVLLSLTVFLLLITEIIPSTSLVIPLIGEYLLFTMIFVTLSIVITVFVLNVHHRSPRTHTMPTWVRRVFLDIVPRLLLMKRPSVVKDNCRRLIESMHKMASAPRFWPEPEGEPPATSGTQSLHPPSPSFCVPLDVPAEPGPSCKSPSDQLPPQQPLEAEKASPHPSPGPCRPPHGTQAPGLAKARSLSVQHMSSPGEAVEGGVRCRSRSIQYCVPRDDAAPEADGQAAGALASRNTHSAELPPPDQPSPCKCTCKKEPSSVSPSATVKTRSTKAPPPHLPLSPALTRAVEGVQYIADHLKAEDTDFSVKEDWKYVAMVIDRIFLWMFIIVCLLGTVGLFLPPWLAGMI
pEC50: −log10 of the molar value.
Bucketed by reported pEC50, buckets being class 0 (below 5), class 1 (5 to below 6), class 2 (6 or more)

Take a look at these entries with their results.
## Input In plain terms, what class is Clc1ccc(N2C[C@@H]3C[C@H]2CN3)cn1 ?
## Output class 2

## Input In plain terms, what class is c1cncc(N2CC3CNCC2C3)c1 (centres undefined) ?
## Output class 1

## Input In plain terms, what class is Oc1cc(N2C[C@H]3C[C@@H]2CN3)cnc1Cl ?
## Output class 1

## Input In plain terms, what class is N#Cc1cncc(N2C[C@@H]3C[C@H]2CN3)c1 ?
## Output class 0

## Input In plain terms, what class is Cc1cc(N2C[C@H]3C[C@@H]2CN3)cnc1Cl ?
## Output class 2

---
## Input In plain terms, what class is c1cncc(N2C[C@@H]3C[C@H]2CN3)c1 ?
## Output class 1

## Input In plain terms, what class is Oc1cc(N2C[C@@H]3C[C@H]2CN3)cnc1Cl ?
## Output class 0

## Input In plain terms, what class is c1cncc(N2CC3CCC2CN3)c1 (centres undefined) ?
## Output class 2

## Input In plain terms, what class is COc1cc(N2C[C@H]3C[C@@H]2CN3)cnc1Cl ?
## Output class 1

## Input In plain terms, what class is NC(=O)c1cncc(N2C[C@@H]3C[C@H]2CN3)c1 ?
## Output class 0

## Input In plain terms, what class is Clc1cc(N2C[C@H]3C[C@@H]2CN3)cnc1Cl ?
## Output class 2

====

assay: Drug level in Sprague-Dawley rat brain at 6.2 umol/kg, ip after 15 mins; assay type: ADME, organism-based; settings: read-out: Drug uptake
EXPERIMENTAL ENDPOINT: concentration at 0.25 h (ng/g)
Reply numerically in ng/g, unit not repeated.

In plain terms, Oc1cc(N2C[C@H]3C[C@@H]2CN3)cnc1Cl has a documented concentration at 0.25 h of 29

====

test system: Striatum; experiment: Agonist activity at rat striatal tissue assessed as dopamine release; assay type: functional
Response field label: string, one of MET (Log EC50 strictly below -8) or NOT MET.

Take a look at these entries with their results.
## Input Identify whether the molecule Oc1cc(N2C[C@H]3C[C@@H]2CN3)cnc1Cl records Log EC50 below -8.
## Output MET

## Input Identify whether the molecule Oc1cc(N2C[C@@H]3C[C@H]2CN3)cnc1Cl records Log EC50 below -8.
## Output NOT MET

## Input Identify whether the molecule Fc1ccc(N2C[C@H]3C[C@@H]2CN3)cn1 records Log EC50 below -8.
## Output NOT MET

## Input Identify whether the molecule N#Cc1cncc(N2C[C@H]3C[C@@H]2CN3)c1 records Log EC50 below -8.
## Output MET

## Input Identify whether the molecule COc1cncc(N2C[C@H]3C[C@@H]2CN3)c1 records Log EC50 below -8.
## Output NOT MET

## Input Identify whether the molecule Clc1ccc(N2C[C@H]3C[C@@H]2CN3)cn1 records Log EC50 below -8.
## Output MET

## Input Identify whether the molecule Oc1cncc(N2C[C@H]3C[C@@H]2CN3)c1 records Log EC50 below -8.
## Output MET

## Input Identify whether the molecule N#Cc1cncc(N2C[C@@H]3C[C@H]2CN3)c1 records Log EC50 below -8.
## Output NOT MET

---
## Input Identify whether the molecule Clc1ccc(N2C[C@@H]3C[C@H]2CN3)cn1 records Log EC50 below -8.
## Output MET

## Input Identify whether the molecule Oc1cncc(N2C[C@@H]3C[C@H]2CN3)c1 records Log EC50 below -8.
## Output NOT MET

## Input Identify whether the molecule COc1cncc(N2C[C@@H]3C[C@H]2CN3)c1 records Log EC50 below -8.
## Output NOT MET

## Input Identify whether the molecule Fc1ccc(N2C[C@@H]3C[C@H]2CN3)cn1 records Log EC50 below -8.
## Output NOT MET

====

test: Drug level in Sprague-Dawley rat brain at 6.2 umol/kg, ip after 30 mins; format: ADME, organism-based; conditions: read-out: Drug uptake
EXPERIMENTAL ENDPOINT: concentration at 0.5 h (ng/g)
Reply numerically in ng/g, unit not repeated.

In plain terms, Oc1cc(N2C[C@H]3C[C@@H]2CN3)cnc1Cl has a documented concentration at 0.5 h of 22

====

test: Drug level in Sprague-Dawley rat plasma at 6.2 umol/kg, ip after 30 mins; type: ADME, organism-based
EXPERIMENTAL ENDPOINT: concentration at 0.5 h (ng/mL)
Reply numerically in ng/mL, unit not repeated.

In plain terms, Oc1cc(N2C[C@H]3C[C@@H]2CN3)cnc1Cl has a documented concentration at 0.5 h of 289

====

test: Drug level in Sprague-Dawley rat at 6.2 umol/kg, ip after 60 mins; format: ADME, organism-based; settings: brain, read-out: Drug uptake
EXPERIMENTAL ENDPOINT: concentration at 1 h

In plain terms, Oc1cc(N2C[C@H]3C[C@@H]2CN3)cnc1Cl has a documented concentration at 1 h of 10 ng/g

====

target: Neuronal acetylcholine receptor; alpha4/beta2 (Rattus norvegicus, UniProt P09483+P12390); assay: Displacement of [3H]cytisine from alpha-4-beta-2 in rat cerebral cortical membrane; type: cell membranes; details: read-out: Ki
EXPERIMENTAL ENDPOINT: pKi
Reminder that pKi means the negative base-10 logarithm of the concentration expressed in mol/L.

Look over these answered cases.
In plain terms, NC(=O)c1cncc(N2C[C@H]3C[C@@H]2CN3)c1 has a documented pKi of 9.08

In plain terms, O=[N+]([O-])c1ccc(N2C[C@@H]3C[C@H]2CN3)cc1 has a documented pKi of 7.17

In plain terms, NCc1cncc(N2C[C@@H]3C[C@H]2CN3)c1 has a documented pKi of 6.85

In plain terms, c1cncc(N2C[C@H]3C[C@@H]2CN3)c1 has a documented pKi of 10.74

In plain terms, FC(F)(F)c1cncc(N2C[C@H]3C[C@@H]2CN3)c1 has a documented pKi of 6.31

In plain terms, Clc1nnc(N2C[C@@H]3C[C@H]2CN3)c2ccccc12 has a documented pKi of 5.72

Attention now shifts to the item below.
In plain terms, Clc1ccc(N2C[C@H]3C[C@@H]2CN3)cn1 has a documented pKi of 10.74

====

The following compounds are shown together with reported EC50 values.
tested on: Striatum; test: Agonist activity at rat striatal tissue assessed as dopamine release; format: functional; settings: Rattus norvegicus, Striatum; read-out: Log EC50 (converted)
Reply numerically in nM, unit not repeated.

Look over these answered cases.
In plain terms, Clc1ccc(C2CC3CCC2N3)cn1 (stereo unspecified) [EPIBATIDINE] has a documented EC50 of 0.832

In plain terms, CN1CCC[C@H]1c1cccnc1 [NICOTINE] has a documented EC50 of 200

Attention now shifts to the item below.
In plain terms, Clc1cc(N2C[C@H]3C[C@@H]2CN3)cnc1Cl has a documented EC50 of 16.2
